- Target desc: Recombinant human furin (Homo sapiens)
- Construct: purchased Bio-Techne
- Sequence (P09958 108-794): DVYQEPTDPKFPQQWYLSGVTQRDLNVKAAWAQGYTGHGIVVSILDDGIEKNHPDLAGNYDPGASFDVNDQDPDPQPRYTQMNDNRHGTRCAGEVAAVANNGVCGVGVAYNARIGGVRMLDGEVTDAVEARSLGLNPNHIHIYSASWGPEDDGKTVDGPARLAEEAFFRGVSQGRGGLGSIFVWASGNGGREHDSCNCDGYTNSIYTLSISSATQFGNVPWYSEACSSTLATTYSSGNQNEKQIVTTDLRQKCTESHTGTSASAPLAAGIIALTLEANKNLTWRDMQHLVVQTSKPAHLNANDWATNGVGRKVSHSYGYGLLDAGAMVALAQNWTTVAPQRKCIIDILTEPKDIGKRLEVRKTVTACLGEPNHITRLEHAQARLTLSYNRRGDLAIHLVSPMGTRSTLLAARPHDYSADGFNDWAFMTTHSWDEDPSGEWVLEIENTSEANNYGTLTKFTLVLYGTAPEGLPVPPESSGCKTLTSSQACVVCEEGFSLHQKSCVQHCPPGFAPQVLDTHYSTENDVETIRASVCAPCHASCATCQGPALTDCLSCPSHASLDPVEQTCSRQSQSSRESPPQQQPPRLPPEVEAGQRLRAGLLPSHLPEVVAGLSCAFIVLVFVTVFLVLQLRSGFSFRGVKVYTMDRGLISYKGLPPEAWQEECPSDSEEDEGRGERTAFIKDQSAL
- Protocol text: Protease selectivity, Ki on recombinant protease
- Format: biochemical
- Measurement context: single experiments N1-N3; Figure 1D; read-out: Individual Ki, Furin
Recorded measurements of Ki, one per entry

[
  {
    "Compound": "N=C(N)NCCCCC(=O)N[C@@H](CCC(=O)O)C(=O)N[C@@H](Cc1ccccc1)C(=O)N[C@@H](CCCNC(=N)N)C(=O)c1nc2ccccc2s1 [Compound N-00438]",
    "Parameter measured": "Ki",
    "Result": "> 10 µM"
  }
]

Hi! What's the reported Ki for N=C(N)NCCCCC(=O)N[C@@H](CCC(N)=O)C(=O)N[C@@H](Cc1ccccc1)C(=O)N[C@@H](CCCNC(=N)N)C(=O)c1nc2ccccc2s1 [Compound N-00130] on Recombinant human furin (Homo sapiens)?
> 10 µM

* * *

- Test system: SARS-CoV-2 lineage B strain (VIDO)
- Protocol text: microbe, parasite or virus in culture
- Type: cell-based
- Measurement context: Severe acute respiratory syndrome coronavirus 2, Calu-3; read-out: SARS-CoV-2 VIDO Nucleocapsid EC50 ± SE
Counter-ions that a name gives are not always drawn.
Parameter measured: pEC50
Worth noting: pEC50 values are minus log10 of concentrations stated in mol/L.

[
  {
    "Compound": "N=C(N)NCCCCC(=O)N[C@@H](CCC(=O)O)C(=O)N[C@@H](Cc1ccccc1)C(=O)N[C@@H](CCCNC(=N)N)C(=O)c1nc2ccccc2s1",
    "Numeric value": 7.45
  }
]

# query: pEC50 of entry CS(=O)(=O)NC(CCC(N)=O)C(=O)NC(Cc1ccccc1)C(=O)NC(CCCNC(=N)N)C(=O)c1nc2ccccc2s1 (stereo not drawn)
8.55

What pEC50 value was documented for this compound, CC(=O)NC(CCC(N)=O)C(=O)NC(Cc1ccccc1)C(=O)NC(CCCNC(=N)N)C(=O)c1nc2ccccc2s1 (stereo not drawn) ?
8.64

Given the compound CN(C)C(=O)COC(=O)Cc1ccc(OC(=O)c2ccc(NC(=N)N)cc2)cc1 [Camostat mesylate, reference compound] , what is its reported pEC50?
7.97

Fill in: pEC50 of N=C(N)NCCCCC(=O)NC(CCC(N)=O)C(=O)NC(Cc1ccccc1)C(=O)NC(CCCNC(=N)N)C(=O)c1nc2ccccc2s1 (stereo not drawn) is ___
7.52

* * *

- Target desc: Recombinant human DESC1 (Homo sapiens)
- Construct: made in house
- Sequence (Q9UL52 1-423): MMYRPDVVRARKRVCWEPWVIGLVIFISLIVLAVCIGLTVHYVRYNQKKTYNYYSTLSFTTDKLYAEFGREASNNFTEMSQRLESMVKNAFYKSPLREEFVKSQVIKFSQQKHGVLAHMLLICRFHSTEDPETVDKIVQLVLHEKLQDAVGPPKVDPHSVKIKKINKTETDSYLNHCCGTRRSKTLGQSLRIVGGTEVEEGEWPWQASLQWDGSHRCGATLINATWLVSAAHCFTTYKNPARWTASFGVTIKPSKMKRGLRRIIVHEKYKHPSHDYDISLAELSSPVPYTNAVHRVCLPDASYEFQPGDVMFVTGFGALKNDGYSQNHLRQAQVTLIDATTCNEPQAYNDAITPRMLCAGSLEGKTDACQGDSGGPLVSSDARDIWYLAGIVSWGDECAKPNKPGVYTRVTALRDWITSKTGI
- Protocol text: Protease selectivity, Ki on recombinant protease
- Type: biochemical
- Measurement context: mean ± s.d., max concentration 10 µM; read-out: Ki DESC1
Counter-ions that a name gives are not always drawn.
Ki vs 30 nM: less than gives 1; not less than gives -1.

[
  {
    "Molecule": "CN(C)C(=O)COC(=O)Cc1ccc(OC(=O)c2ccc(NC(=N)N)cc2)cc1 [Camostat mesylate, reference compound]",
    "Target desc": "Recombinant human DESC1 (Homo sapiens)",
    "Answer label": 1
  },
  {
    "Molecule": "CC(=O)NC(CCC(N)=O)C(=O)NC(Cc1ccccc1)C(=O)NC(CCCNC(=N)N)C(=O)c1nc2ccccc2s1 (centres unmarked) [Compound N-0386, Ac-QFR-kbt]",
    "Target desc": "Recombinant human DESC1 (Homo sapiens)",
    "Answer label": 1
  },
  {
    "Molecule": "CS(=O)(=O)NC(CCC(N)=O)C(=O)NC(Cc1ccccc1)C(=O)NC(CCCNC(=N)N)C(=O)c1nc2ccccc2s1 (centres unmarked) [Compound N-0385, Ms-QFR-kbt]",
    "Target desc": "Recombinant human DESC1 (Homo sapiens)",
    "Answer label": 1
  },
  {
    "Molecule": "N=C(N)NCCCCC(=O)N[C@@H](CCC(=O)O)C(=O)N[C@@H](Cc1ccccc1)C(=O)N[C@@H](CCCNC(=N)N)C(=O)c1nc2ccccc2s1 [Compound N-0438, (H)REFR-kbt]",
    "Target desc": "Recombinant human DESC1 (Homo sapiens)",
    "Answer label": -1
  }
]

Item N=C(N)NCCCCC(=O)NC(CCC(N)=O)C(=O)NC(Cc1ccccc1)C(=O)NC(CCCNC(=N)N)C(=O)c1nc2ccccc2s1 (centres unmarked) [Compound N-0130, (H)RQFR-kbt] : Ki beneath 30 nM, strictly?
1

* * *

- Protocol text: Cytotoxicity CC50 in Calu-3 lung epithelial cells
- Type: cell-based, human
- Measurement context: human, Calu-3 cells, Log [inhibitor] -3.00; single replicates; read-out: % of Viability
Catalogue of molecules with associated viability at 24 h, 1000 µM
Answer with a number only, understood to be in %.

Which viability at 24 h, 1000 µM is reported for this molecule? "CS(=O)(=O)N[C@@H](CCC(N)=O)C(=O)N[C@@H](Cc1ccccc1)C(=O)N[C@@H](CCCNC(=N)N)C(=O)c1nc2ccccc2s1"
74

State the recorded viability at 24 h, 1000 µM for this entry: N=C(N)NCCCCC(=O)NC(CCC(N)=O)C(=O)NC(Cc1ccccc1)C(=O)NC(CCCNC(=N)N)C(=O)c1nc2ccccc2s1 (centres unmarked)
84

* * *

Measured viability at 24 h, 3000 µM, listed per entry.
- Protocol text: Cytotoxicity CC50 in Calu-3 lung epithelial cells
- Format: cell-based, human
- Measurement context: human, Calu-3 cells, Log [inhibitor] -2.52; single replicates; read-out: % of Viability
// units = %; emit number, no label

[
  {
    "Compound": "CC(=O)N[C@@H](CCC(N)=O)C(=O)N[C@@H](Cc1ccccc1)C(=O)N[C@@H](CCCNC(=N)N)C(=O)c1nc2ccccc2s1",
    "viability at 24 h, 3000 µM, %": 44
  }
]

Could you now look at the following compound, please?
Can you look up the measured viability at 24 h, 3000 µM of N=C(N)NCCCCC(=O)NC(CCC(N)=O)C(=O)NC(Cc1ccccc1)C(=O)NC(CCCNC(=N)N)C(=O)c1nc2ccccc2s1 (centres unmarked) for me?
42

* * *

Overview of recorded CC50 at 24 h for various compounds
- Protocol text: Cytotoxicity CC50 in Calu-3 lung epithelial cells
- Format: cell-based, human
- Measurement context: human, Calu-3 cells; unit not given for CC50; read-out: CC50

Please look up its CC50 at 24 h: CC(=O)N[C@@H](CCC(N)=O)C(=O)N[C@@H](Cc1ccccc1)C(=O)N[C@@H](CCCNC(=N)N)C(=O)c1nc2ccccc2s1 [Compound N-386]
1880 µM

Find the recorded CC50 at 24 h belonging to N=C(N)NCCCCC(=O)NC(CCC(N)=O)C(=O)NC(Cc1ccccc1)C(=O)NC(CCCNC(=N)N)C(=O)c1nc2ccccc2s1 (stereo not shown) [Compound N-0130, (H)RQFR-kbt] and report it.
2680 µM

What value of CC50 at 24 h has been reported for the following compound? CS(=O)(=O)N[C@@H](CCC(N)=O)C(=O)N[C@@H](Cc1ccccc1)C(=O)N[C@@H](CCCNC(=N)N)C(=O)c1nc2ccccc2s1 [Compound N-385]
3470 µM

I would be grateful if you could share the reported CC50 at 24 h for N=C(N)NCCCCC(=O)N[C@@H](CCC(=O)O)C(=O)N[C@@H](Cc1ccccc1)C(=O)N[C@@H](CCCNC(=N)N)C(=O)c1nc2ccccc2s1 [Compound N-0438, (H)REFR-kbt] .
980 µM

* * *

- Protocol text: Cytotoxicity CC50 in Calu-3 lung epithelial cells
- Assay type: cell-based, human
- Measurement context: human, Calu-3 cells, Log [inhibitor] -2.52; read-out: % of Viability, Average (n=2)
Parameter measured: viability at 24 h, 3000 µM (%)
Numeric only. Scale: %

Below, each entry is followed by its recorded viability at 24 h, 3000 µM result.
[
  {
    "Compound": "CS(=O)(=O)N[C@@H](CCC(N)=O)C(=O)N[C@@H](Cc1ccccc1)C(=O)N[C@@H](CCCNC(=N)N)C(=O)c1nc2ccccc2s1",
    "Display unit": "%",
    "viability at 24 h, 3000 µM": 52.5
  },
  {
    "Compound": "N=C(N)NCCCCC(=O)NC(CCC(N)=O)C(=O)NC(Cc1ccccc1)C(=O)NC(CCCNC(=N)N)C(=O)c1nc2ccccc2s1 (stereo not shown)",
    "Display unit": "%",
    "viability at 24 h, 3000 µM": 44.5
  },
  {
    "Compound": "CC(=O)N[C@@H](CCC(N)=O)C(=O)N[C@@H](Cc1ccccc1)C(=O)N[C@@H](CCCNC(=N)N)C(=O)c1nc2ccccc2s1",
    "Display unit": "%",
    "viability at 24 h, 3000 µM": 46
  }
]

Here is the next item to consider.
Looking for the measured viability at 24 h, 3000 µM of "N=C(N)NCCCCC(=O)N[C@@H](CCC(=O)O)C(=O)N[C@@H](Cc1ccccc1)C(=O)N[C@@H](CCCNC(=N)N)C(=O)c1nc2ccccc2s1" , can you help?
25.5
